test system: MS2 coat protein; experiment: apparent KD of MS2 coat protein; designed switch direction (-1 OFF switch, 1 ON switch): -1; higher = weaker reporter binding; conditions: Eterna round: R95; input ligand: microRNA oligo, concentration not stated
Returns TRUE if the recorded apparent KD of MS2 coat protein is greater than or equal to 100 nM, and FALSE otherwise.

Please review the entries below; each comes with its answer.
{"columns": ["sequenceChain", "cat"],
 "data": [
  ["AGAAGUAGUACCCGAUCCUACAUGAGGAUCACCCAUGUAGCUAGACGUGCACGCGAUGCUCGUCAGACUACCAGAUG [salish99_TOv1_r3_032] (puzzle: Sensor v3, turn-off variant 1)", "TRUE"],
  ["AUUUAGAGAGGAUAUAUAUUUUAAAACAUGAGGAUCACCCAUGUAAUUUUAUGGGAGAAAAUAGAAGGCUCAUUUA [JMFs Solution 1] (puzzle: Exclusion 5)", "TRUE"],
  ["UUUUAACAUGAGGAUCACCCAUGUGAGGAUAUCGAAAUUUAUAUUUAUAUUAAUAAUACGAGAAGGCACAUUUU [JMF 78] (puzzle: Exclusion 1)", "FALSE"],
  ["GUCUCGUCAGGAUAUGACGCUACAUUUUUUUUUUAGAAGAGUCAGAAGGGACAUGAGGAUCACCCAUGUGAUUC [Ex4 - 3 - 2] (puzzle: Exclusion 4)", "TRUE"],
  ["GACCUCACGGUCAGGAUAUCAGAACGGAAUGCGCAUGAGAAGGGACAUGAGGAUCACCCAUGUGGGCUCGUCGC [Eddionce] (puzzle: Brourd's mod of Exclusion 4)", "FALSE"]
]}

Kindly determine if apparent KD of MS2 coat protein recorded for AGAAAGCAAGGAUAUACGAGGAGAAGGAGGAAAGUUAAAGGACAUGAGGAUCACCCAUGUAGAAGGUGCGAGAA [JR_Exclu2_Sub042] (puzzle: Exclusion 2) is above or exactly 100 nM.
FALSE

Has CUCUUGUGAGGAUAUCAGGUGUGCUAGCGUACUGGUACAUCUGAGAAGGCACAUGAGGAUCACCCAUGUUUCUA [Mat - Exclusion 4 - Mod of JL - D40] (puzzle: Exclusion 4) a recorded apparent KD of MS2 coat protein greater than or equal to 100 nM?
FALSE
